molecular target: PKBα (Homo sapiens, UniProt P31749); test: PKB kinase assay (P33-labeled ATP, peptide substrate, filter plate); conditions: PKBα enzyme (full length or kinase domain with pleckstrin domain deleted)
Sequence (P31749 118-480 limits assumed): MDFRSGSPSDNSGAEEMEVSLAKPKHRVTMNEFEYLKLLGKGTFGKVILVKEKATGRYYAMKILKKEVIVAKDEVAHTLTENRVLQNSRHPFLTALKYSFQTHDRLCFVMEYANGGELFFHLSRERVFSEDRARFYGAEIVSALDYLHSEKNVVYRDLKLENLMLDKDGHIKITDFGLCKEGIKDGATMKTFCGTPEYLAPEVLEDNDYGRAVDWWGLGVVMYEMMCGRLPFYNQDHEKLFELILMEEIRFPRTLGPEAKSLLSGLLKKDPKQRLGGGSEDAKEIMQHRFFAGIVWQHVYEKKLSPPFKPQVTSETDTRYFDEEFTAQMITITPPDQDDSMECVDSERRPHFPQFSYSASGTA
# Lookup of reported IC50 keyed by entry

smilesData	IC50
N[C@H](CNc1ncc(-c2ccc3c(c2)CC(=O)N3)s1)Cc1ccc(Cl)c(Cl)c1	< 50 nM
N[C@H](CNc1nc(-c2cnco2)c(-c2ccc3cnccc3c2)s1)Cc1ccc(C(F)(F)F)cc1	50 to 1000 nM
C[C@@H](c1ccc(C(F)(F)F)cc1)[C@H](N)CNc1ncc(-c2ccc3c(c2F)CC(=O)N3)s1	< 50 nM
COc1ccc(C[C@H](N)CNc2ncc(-c3ccc4[nH]c(=O)oc4c3)s2)cc1	50 to 1000 nM

Every entry's value here was drawn from patent US8084479B2.
